Below: a set of entries, each annotated with reported TGI.
tested on: MOLT-4 leukemia; experiment: NCI tumour cell line growth inhibition, 48 h

[
  {
    "compound": "CC1=C(C)C(=O)C2=C(OCCO2)C1=O",
    "TGI": "7.2 µM"
  },
  {
    "compound": "COc1ccc(NC(=S)N=Nc2c(O)[nH]c3ccccc23)cc1",
    "TGI": "> 100 µM"
  },
  {
    "compound": "COc1cc(-c2cc(/C=C/C(=O)c3ccc(N)cc3)[nH]n2)cc(OC)c1OC",
    "TGI": "8.51 µM"
  },
  {
    "compound": "NC(=O)c1c2c(n3ccccc13)C(=O)c1ccccc1C2=O",
    "TGI": "> 100 µM"
  },
  {
    "compound": "COc1ccc(-c2nc3ccccc3c(=O)[nH]2)c(OC)c1",
    "TGI": "> 100 µM"
  },
  {
    "compound": "O=C1/C(=C/c2ccc(O)c(O)c2)COc2ccc(-c3ccccc3)cc21",
    "TGI": "4.73 µM"
  },
  {
    "compound": "C[C@]12Cc3cn[nH]c3C(=O)C1CC[C@@H]1C2CC[C@@]2(C)C1CC[C@]2(C)O (some centres not stated)",
    "TGI": "> 100 µM"
  },
  {
    "compound": "CC(=O)CC(O)(C(F)(F)Cl)C(F)(F)Cl",
    "TGI": "> 10 µM"
  },
  {
    "compound": "CCc1c2c(nc3ccc(OC(=O)NCc4ccc(B5OC(C)(C)C(C)(C)O5)cc4)cc13)-c1cc3c(c(=O)n1C2)COC(=O)[C@]3(O)CC",
    "TGI": "> 100 µM"
  },
  {
    "compound": "N#CC(NCCc1ccccc1)c1ccccc1 (configuration not stated)",
    "TGI": "> 100 µM"
  },
  {
    "compound": "N#CC(/C(=N/N=C(N)N)C(=O)Nc1ccccc1[N+](=O)[O-])c1nc(-c2ccc([N+](=O)[O-])cc2)cs1 (configuration not stated)",
    "TGI": "> 100 µM"
  },
  {
    "compound": "CCOC(=O)C1=C(N)CCC1C (configuration not stated)",
    "TGI": "65.5 µM"
  },
  {
    "compound": "Oc1c(-c2ccccc2)nc2ccccn12",
    "TGI": "> 100 µM"
  },
  {
    "compound": "NC1=NS(=O)(=O)Nc2nc(-c3ccccc3)c(-c3ccccc3)nc21",
    "TGI": "> 100 µM"
  },
  {
    "compound": "O=C(N=Nc1ccc(Br)cc1)NNc1ccc(Br)cc1",
    "TGI": "26 µM"
  },
  {
    "compound": "CC1CCN(CCC(=O)CC(c2ccccc2)c2c(O)c3ccccc3oc2=O)CC1 (configuration not stated)",
    "TGI": "> 100 µM"
  },
  {
    "compound": "O=C1c2ccccc2C(=O)c2c1ccc(C(Br)Br)c2Cl",
    "TGI": "9.32 µM"
  },
  {
    "compound": "COC(=O)c1nn(-c2ccccc2)c(=O)cc1N=[N+]=[N-]",
    "TGI": "> 100 µM"
  },
  {
    "compound": "S=C(NC/C(Br)=C/Br)Nc1cccc2ccccc12",
    "TGI": "46.8 µM"
  },
  {
    "compound": "O=C1Cc2c([nH]c3ccc([N+](=O)[O-])cc23)-c2ccccc2N1",
    "TGI": "1.44 µM"
  },
  {
    "compound": "COc1ccc(C(=O)N/N=C2\\C(=O)c3c(C)cc(C)cc3CC2(C)C)cc1",
    "TGI": "37.3 µM"
  },
  {
    "compound": "O=C(/C=C(\\N=P(c1ccccc1)(c1ccccc1)c1ccccc1)C(F)(F)C(F)(F)C(F)(F)C(F)(F)C(F)(F)C(F)(F)C(F)(F)F)c1ccccc1",
    "TGI": "> 100 µM"
  }
]
